# subject-of-test: T1, mouse melanocortin 4 receptor (mouse, UniProt P56450 1-332)
# T1 construct: whole, on cells; also called mMC4R; MC4R
# protocol-text: 125I-NDP-MSH competition; fold vs SEQ ID NO: 1 control
Square brackets hold non-standard residues; d marks the D form.
Entries and their Fold Diff
Enter your answer as a number in fold; do not include the unit.

// lookup Fold Diff for cyclo(PRFFNVF[dP]) (Ala115Val SNP in the Asn scaffold; also called c[Pro-Arg-Phe-Phe-Asn-Val-Phe-DPro]) [ZMK 2-82]
2

// lookup Fold Diff for cyclo(PRYFNAF[dP]) (Phe112Tyr SNP in the Asn scaffold; also called c[Pro-Arg-Tyr-Phe-Asn-Ala-Phe-DPro]) [ZMK 2-110]
100

// lookup Fold Diff for cyclo(PCFFNAF[dP]) (Arg111Cys SNP in the Asn scaffold; also called c[Pro-Cys-Phe-Phe-Asn-Ala-Phe-DPro]) [ZMK 3-18]
90

// lookup Fold Diff for cyclo(PHFFNAF[dP]) (Arg111His SNP in the Asn scaffold; also called c[Pro-His-Phe-Phe-Asn-Ala-Phe-DPro]) [ZMK 2-96]
300
